biological target: T1, human PCSK9 (PCSK9 antigen, SEQ ID NO. 53) (human, UniProt A8T644 31-152; Q8NBP7 153-692, Biotin-labelled on amines in the MSD-SET and sorting experiments; positions not given.); assay: flow cytometry, PCSK9 left on CHO-LDLR cells (anti-His-FITC) after premix with 0.1 nM antibody
T1 construct: Biotin-labelled in MSD-SET; also called PCSK9-WT; PCSK9 protein
Please provide measured Fluorescence Signal Value for the entries that follow.
// no unit, no text: just the number

Recorded Fluorescence Signal Value for ADI-10085 (antibody, human IgG2, kappa, V domains shown, IgG) VH: QLQLQESGPGLVKPSETLSLTCTVSGGSIVSSSYYWAWIRQPPGKGLEWIGSINYKGSTYYNPSLKSRVTISVDTSKNQFSLKLSSVTAADTAVYYCARENSGVVPAAGPNWFGPWGQGTLVTVSS VL: EIVLTQSPATLSLSPGERATLSCRASQSVSSYLAWYQQKPGQAPRLLIYDASNRATGIPARFSGSGSGTDFTLTISSLEPEDFAVYYCQQRRNWFTFGGGTKVEIKR , please?
10400

Recorded Fluorescence Signal Value for ADI-10090 (antibody, human IgG2, kappa, V domains shown, IgG) VH: QLQLQESGPGLVKPSETLSLTCTVSGGSIWSSSYYWTWIRQPPGKGLEWIGSINYRGSTYYNPSLKSRVTISVDTSKNQFSLKLSSVTAADTAVYYCARENSGVVPAAGPNWFDPWGQGTLVTVSS VL: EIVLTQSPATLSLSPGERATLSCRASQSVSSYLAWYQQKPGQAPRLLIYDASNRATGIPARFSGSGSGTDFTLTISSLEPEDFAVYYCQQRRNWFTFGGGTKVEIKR , please?
6810
